Target protein (sequence): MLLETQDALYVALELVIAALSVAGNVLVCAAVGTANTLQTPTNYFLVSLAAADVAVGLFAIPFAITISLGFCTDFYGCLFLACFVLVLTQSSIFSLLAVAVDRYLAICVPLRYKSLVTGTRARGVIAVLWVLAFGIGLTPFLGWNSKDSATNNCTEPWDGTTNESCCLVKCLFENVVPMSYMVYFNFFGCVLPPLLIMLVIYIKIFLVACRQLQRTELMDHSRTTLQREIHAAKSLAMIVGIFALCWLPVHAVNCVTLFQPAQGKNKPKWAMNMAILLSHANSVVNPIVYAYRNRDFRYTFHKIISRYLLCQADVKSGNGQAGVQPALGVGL
REPORTED METRIC: Ki (nM)
Give bare numbers, in nM.

STRUCTURE STRING: CCCn1c(=O)c2[nH]c(-c3ccc(OCC(=O)Nc4ccc(C)cc4)cc3)cc2n(CCC)c1=O
MEASUREMENT UNIT: nM
Ki: 14.1
--
STRUCTURE STRING: CCCn1c(=O)c2nc(-c3ccc(OCC(=O)Nc4ccc(C)cc4)cc3)[nH]c2n(CCC)c1=O
MEASUREMENT UNIT: nM
Ki: 1.91
--
STRUCTURE STRING: CCCn1c(=O)n(C)c(=O)c2[nH]c(-c3ccc(OCC(=O)Nc4ccccc4)cc3)cc21
MEASUREMENT UNIT: nM
Ki: 21.4
--
STRUCTURE STRING: CCCn1c(=O)c2[nH]c(-c3ccc(OCC(=O)Nc4ccc(Br)cc4)cc3)cc2n(CCC)c1=O
MEASUREMENT UNIT: nM
Ki: 2.19
--
STRUCTURE STRING: Cn1c(=O)c2[nH]c(-c3cccc(OCC(=O)Nc4ccc(Br)cc4)c3)cc2n(C)c1=O
MEASUREMENT UNIT: nM
Ki: 44.7

Task: Please give the measured Ki for this compound: `CCCn1c(=O)c2[nH]c(-c3ccc(OCC(=O)Nc4ccc(CC(=O)OCC)cc4)cc3)cc2n(CCC)c1=O`
Output: 60.3

----------
# STUDY TARGET: UniProtKB P29274
# Sequence (P29274 whole entry): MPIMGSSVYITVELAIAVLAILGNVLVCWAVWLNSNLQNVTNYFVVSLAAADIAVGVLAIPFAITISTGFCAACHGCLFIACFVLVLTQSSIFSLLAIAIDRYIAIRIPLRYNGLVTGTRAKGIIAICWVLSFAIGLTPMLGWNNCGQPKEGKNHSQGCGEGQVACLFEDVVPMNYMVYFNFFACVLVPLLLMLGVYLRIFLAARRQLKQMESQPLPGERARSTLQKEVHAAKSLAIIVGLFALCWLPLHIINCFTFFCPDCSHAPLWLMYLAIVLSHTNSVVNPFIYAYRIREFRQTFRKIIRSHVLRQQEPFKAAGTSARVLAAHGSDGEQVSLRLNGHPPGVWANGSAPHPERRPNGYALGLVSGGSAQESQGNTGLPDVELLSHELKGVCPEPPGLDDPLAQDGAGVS
# PROTOCOL: Displacement of [3H]ZM-241385 from recombinant human adenosine A2A receptor expressed in HeLa cells at 0.1 uM
Hi there, I'd appreciate the recorded inhibition for every entry that follows.
Give bare numbers, in %.

Solved cases below.
STRUCTURE STRING: Cn1c(=O)c2[nH]c(-c3ccc(OCC(=O)Nc4ccccc4)cc3)cc2n(C)c1=O
inhibition (%): 10
//
STRUCTURE STRING: Cn1c(=O)c2[nH]c(-c3ccc(OCC(=O)NCc4ccco4)cc3)cc2n(C)c1=O
inhibition (%): 13
//
STRUCTURE STRING: CCCn1c(=O)c2[nH]c(-c3ccc(OCC(=O)Nc4ccc(OC)cc4)cc3)cc2n(CCC)c1=O
inhibition (%): 52

# per-item lookup of inhibition; items listed below
1. CCCn1c(=O)c2[nH]c(-c3ccc(OCC(=O)Nc4ncccc4O)cc3)cc2n(C)c1=O
2. CCCn1c(=O)c2[nH]c(-c3ccc(OCC(=O)Nc4ccc(CC(=O)OCC)cc4)cc3)cc2n(C)c1=O
3. CCCn1c(=O)c2[nH]c(-c3ccc(OCC(=O)Nc4ccc(F)cc4)cc3)c(Br)c2n(CCC)c1=O
4. Cn1c(=O)c2[nH]c(-c3ccc(OCC(=O)Nc4ccc(C#N)cc4)cc3)cc2n(C)c1=O

Output:
[22, 0, 70, 47]

Attribution: ChEMBL document CHEMBL1148617
